target: Lysosomal acid glucosylceramidase (Homo sapiens); experiment: qHTS Assay for Inhibitors and Activators of N370S glucocerebrosidase as a Potential Chaperone Treatment of Gaucher Disease: Activity in Non-Mutant Spleen Homogenate Using a Red Fluorescent Substrate; details: red fluorogenic substrate GCase activity; series mostly up to 50.2 µM
Inconclusive results are not listed. Calls of active or inactive are those of the source. The call rests on the fitted dose curve; in most records, active means well fitted inhibition curve with a large enough effect; inconclusive means small, poorly fitted or top-dose-only effect, or effect the other way; inactive means flat fitted curve, though single readings scatter.
Outcome codes: 1 (active), 0 (inactive)

>  <smiles-input>
N=c1c2c(-c3ccccc3)c(-c3ccccc3)n(Cc3ccco3)c2ncn1CCCn1ccnc1

>  <assigned-label>
1

$$$$
>  <smiles-input>
CC(C)(C)c1ccc(S(=O)(=O)N2CCN(c3nc(-c4cccs4)nc4ccccc34)CC2)cc1

>  <assigned-label>
1

$$$$
>  <smiles-input>
N#Cc1ccccc1Sc1ccccc1C(=O)OCC(=O)NC12CC3CC(CC(C3)C1)C2

>  <assigned-label>
0

$$$$
>  <smiles-input>
Cc1cc(C)n2ncc(C(=O)Nc3cccc(O)c3)c2n1

>  <assigned-label>
0

$$$$
>  <smiles-input>
Cc1cc(C)cc(N(CC(=O)NC2CCCCCC2)S(=O)(=O)c2c(C)[nH]c(=O)[nH]c2=O)c1

>  <assigned-label>
1

$$$$
>  <smiles-input>
O=S(=O)(c1ccc(F)cc1)N1CCN(c2nc(-c3cccc(Br)c3)nc3ccccc23)CC1

>  <assigned-label>
0

$$$$
>  <smiles-input>
O=S(=O)(c1ccc(F)cc1)N1CCN(c2nc(-c3cccs3)nc3ccccc23)CC1

>  <assigned-label>
1

$$$$

meta.source: PubChem BioAssay AID2588
